List of binding signal values.
Molecular target: T1, UNK ZnF1-6 (called full-length) (human, UniProt Q9C0B0 30-357)
T1 sequence: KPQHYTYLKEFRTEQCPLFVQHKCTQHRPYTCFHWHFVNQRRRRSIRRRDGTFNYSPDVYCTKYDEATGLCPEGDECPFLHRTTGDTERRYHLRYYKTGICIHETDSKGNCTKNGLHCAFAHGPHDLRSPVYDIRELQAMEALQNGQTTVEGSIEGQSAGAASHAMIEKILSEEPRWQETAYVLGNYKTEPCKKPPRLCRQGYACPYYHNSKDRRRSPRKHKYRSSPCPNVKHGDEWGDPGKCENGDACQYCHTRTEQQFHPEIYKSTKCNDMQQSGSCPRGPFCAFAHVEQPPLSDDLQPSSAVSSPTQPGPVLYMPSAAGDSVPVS
Experiment: nsRBNS (natural sequence RNA bind-n-seq); RBNS binding buffer (assumed for nsRBNS): 25 mM Tris pH 7.5, 150 mM KCl, 3 mM MgCl2, 0.01% Triton X-100, 500 ug/ml BSA, 20 U/ml SUPERase-In, 4 C; UNK is unkempt and MSI1 is Musashi-1; names of the RNAs are library labels; protein concentration not given here; high values mean tight binding
Over roughly 5,800 sequences, “enrichment r” has its median near 0.68; the highest 2% begin near 11. The entries come from a sample that favours the highest values as a whole.
measured metric: binding signal

1. chr17:80395157:80395266:+|3pUTR|ENSG00000173821|unk|FALSE|bound_elsewhere (ssRNA) RNA: GGGAGUUCUACAGUCCGACGAUCCUUCAAAGCCUUAACUGUCAAAUCUUGCAUUAUCUUGUUUGUACAGAAAUAUACUGGCCUAGCAGAGGCAAAAAAAAAAAAAAUGAAUUUUAUUUUACUUGUCACACCUGUCUUAAUAAACAACAGAGGAUUGAGCAUCA    0.564 enrichment R
2. chr7:123541454:123541562:-|3pUTR|ENSG00000128609|unk|total|mutant (ssRNA) RNA: GGGAGUUCUACAGUCCGACGAUCUCCACCGUGUCAUUUUAUUUCCGUCAUUAUUGAAUUAUACCAUUUACUCUGUUUUCUUACCGUCUUAAUUUUAUUAUAUUUUGUUGUUACUGUAUUAUAUUUGAAAACCUUCAAAUCCGACAACAGAGGAUUGAGCAUCA    17 enrichment R
3. chr2:227556236:227556337:+|3pUTR|ENSG00000173744|msi1|FALSE|bound_elsewhere (ssRNA) RNA: GGGAGUUCUACAGUCCGACGAUCUGUUGAAUGCCUUUUUGCAAUGAUGACUGAGUUGUUAUCAUAGUAUUUUAAAACCUGUAUAGUGUUUUAGACUUGUUAAAACAUUGCUGUCUAGUGUACAUCUAGCUAAAAGUGUGGUUUCAACAGAGGAUUGAGCAUCA    0.596 enrichment R
